Please respond with reported pIC50 for every item in the list.
- Tested on: HepG2 human hepatocarcinoma cells
- assay text: MTT cancer cell proliferation assay, HepG2
- Type: cell-based
- condition label: HepG2, 72 h, MTT; read-out: IC50
- Procedure: The five newly synthesized diterpenoids were evaluated for their cytotoxic effects against three selected tumor cell lines, B16-F10 murine melanoma cells, HT29 human colon adenocarcinoma cells, and HepG2 human hepatocarcinoma cells at increasing concentrations (0–100 μg/mL). […] A stock solution was frozen and stored at 4 °C. […] All experiments were measured and compared with control (untreated cells after 24, 48, or 72 h of treatment.) […]
Give bare numbers, as −log10 of the molar value.

COC(=O)[C@]1(C)CCC[C@]2(C)c3cc(O)c(CO)c(C)c3CC[C@@H]12: 3.90

Please supply the value of reported pIC50 for the item COC(=O)[C@]1(C)CCC[C@]2(C)c3cc(O)c(C(C)C)c(C)c3CC[C@@H]12
3.86
